Tested System: canine TRPM8 (Canis lupus familiaris, UniProt Q1A7N1)
Sequence (Q1A7N1 1-1104): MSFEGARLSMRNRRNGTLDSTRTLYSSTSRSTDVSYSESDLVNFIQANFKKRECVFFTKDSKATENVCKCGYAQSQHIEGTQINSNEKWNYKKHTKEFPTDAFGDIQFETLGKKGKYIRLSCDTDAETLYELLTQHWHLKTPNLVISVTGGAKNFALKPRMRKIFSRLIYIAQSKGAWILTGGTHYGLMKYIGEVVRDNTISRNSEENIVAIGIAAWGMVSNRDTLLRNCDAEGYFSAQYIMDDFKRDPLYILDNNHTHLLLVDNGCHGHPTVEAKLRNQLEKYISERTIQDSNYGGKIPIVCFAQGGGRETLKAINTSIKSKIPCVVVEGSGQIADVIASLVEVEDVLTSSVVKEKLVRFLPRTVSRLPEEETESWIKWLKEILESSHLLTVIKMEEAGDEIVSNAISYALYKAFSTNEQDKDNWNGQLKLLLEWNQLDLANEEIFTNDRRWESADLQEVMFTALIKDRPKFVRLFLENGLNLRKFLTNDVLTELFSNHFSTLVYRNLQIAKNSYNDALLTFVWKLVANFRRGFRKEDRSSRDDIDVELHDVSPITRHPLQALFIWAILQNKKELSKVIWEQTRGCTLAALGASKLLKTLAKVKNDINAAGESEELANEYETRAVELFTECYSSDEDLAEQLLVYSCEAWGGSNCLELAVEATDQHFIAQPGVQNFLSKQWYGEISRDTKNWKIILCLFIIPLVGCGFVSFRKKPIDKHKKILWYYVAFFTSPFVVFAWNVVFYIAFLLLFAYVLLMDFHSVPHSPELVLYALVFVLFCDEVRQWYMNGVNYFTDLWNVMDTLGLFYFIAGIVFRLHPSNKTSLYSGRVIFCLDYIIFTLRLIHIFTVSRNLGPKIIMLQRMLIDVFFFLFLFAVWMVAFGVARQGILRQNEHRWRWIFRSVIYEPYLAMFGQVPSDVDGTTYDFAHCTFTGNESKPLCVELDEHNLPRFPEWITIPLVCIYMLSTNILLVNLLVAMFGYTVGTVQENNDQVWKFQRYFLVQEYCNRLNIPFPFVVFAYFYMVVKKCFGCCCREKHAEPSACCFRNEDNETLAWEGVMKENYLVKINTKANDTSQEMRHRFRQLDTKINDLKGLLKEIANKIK
Assay Info: In Vitro Canine TRPM8 Functional Assay (Ca2+ fluorescence, icilin activation)
Type: cell-based
Assay Context: HEK293 cells stably expressing canine TRPM8; icilin activation; eight-point dose-response; read-out: IC50
pIC50: −log10 of the molar value.
Test Readout: pIC50

[[record]]
compound = "COC(C)(C)CCN(c1sc2ccccc2c1Br)S(=O)(=O)c1ccc(C(=O)O)cc1 [Compound 454]"
tested_system = "canine TRPM8 (Canis lupus familiaris, UniProt Q1A7N1)"
test_readout = "pIC50"
observed = 8.40

[[record]]
compound = "CCCCN(c1sc2ccccc2c1Cl)S(=O)(=O)c1ccc(N2CCOCC2)cc1 [Compound 562]"
tested_system = "canine TRPM8 (Canis lupus familiaris, UniProt Q1A7N1)"
test_readout = "pIC50"
observed = 7.48

[[record]]
compound = "CC1=C(N(Cc2ccc(F)c(C(F)(F)F)c2)S(=O)(=O)c2ccccc2)S(=O)(=O)c2ccccc21 [Compound 622]"
tested_system = "canine TRPM8 (Canis lupus familiaris, UniProt Q1A7N1)"
test_readout = "pIC50"
observed = 7.50

[[record]]
compound = "O=S(=O)(c1ccccc1)N(CCC(F)(F)F)c1sc2ccccc2c1Br [Compound 250]"
tested_system = "canine TRPM8 (Canis lupus familiaris, UniProt Q1A7N1)"
test_readout = "pIC50"
observed = 7.90

[[record]]
compound = "O=S(=O)(c1cccnc1Cl)N(Cc1ccc(F)c(C(F)(F)F)c1)c1sc2ccccc2c1Cl [Compound 321]"
tested_system = "canine TRPM8 (Canis lupus familiaris, UniProt Q1A7N1)"
test_readout = "pIC50"
observed = 7.15

[[record]]
compound = "O=S(=O)(c1ccccc1)N(Cc1ccc(OC(F)(F)F)cc1)c1sc2ccccc2c1C(F)(F)F [Compound 325]"
tested_system = "canine TRPM8 (Canis lupus familiaris, UniProt Q1A7N1)"
test_readout = "pIC50"
observed = 8.30

[[record]]
compound = "COC(=O)c1ccc(S(=O)(=O)N(Cc2ccc(F)c(C(F)(F)F)c2)c2sc3ccccc3c2C)cc1 [Compound 138]"
tested_system = "canine TRPM8 (Canis lupus familiaris, UniProt Q1A7N1)"
test_readout = "pIC50"
observed = 7.89

[[record]]
compound = "CS(=O)(=O)Nc1cccc(S(=O)(=O)N(CCC(F)(F)F)c2sc3ccccc3c2Cl)c1 [Compound 714]"
tested_system = "canine TRPM8 (Canis lupus familiaris, UniProt Q1A7N1)"
test_readout = "pIC50"
observed = 7.54


---

Reported inhibition at 0.2 µM values for a set of molecules
Tested System: canine TRPM8 (Canis lupus familiaris, UniProt Q1A7N1)
Assay Info: In Vitro Canine TRPM8 Functional Assay (Ca2+ fluorescence, icilin activation)
Assay type: cell-based
Assay Context: compound at 0.2 μM; canine TRPM8, icilin activation; read-out: % Inh @ 0.2
Test Readout: inhibition at 0.2 µM (%)

[[record]]
molecule = "Cc1c(N(Cc2ccc(OC(F)(F)F)cc2)S(=O)(=O)c2ccc(N(C)C)nc2)sc2ccccc12 [Compound 789]"
test_readout = "inhibition at 0.2 µM"
unit_abbreviation = "%"
observed = 102

[[record]]
molecule = "CCS(=O)(=O)N(CCOC(C)(C)C)c1sc2ccccc2c1C(C)O (stereo not shown) [Compound 283]"
test_readout = "inhibition at 0.2 µM"
unit_abbreviation = "%"
observed = 82

[[record]]
molecule = "CCS(=O)(=O)N(Cc1ccc(F)c(C(F)(F)F)c1)c1sc2ccccc2c1CO [Compound 217]"
test_readout = "inhibition at 0.2 µM"
unit_abbreviation = "%"
observed = 88

[[record]]
molecule = "COc1cc(NS(C)(=O)=O)c(Cl)cc1S(=O)(=O)N(Cc1ccc(F)c(C(F)(F)F)c1)c1sc2ccccc2c1Cl [Compound 766]"
test_readout = "inhibition at 0.2 µM"
unit_abbreviation = "%"
observed = 101

[[record]]
molecule = "CC(=O)c1c(N(Cc2ccc(OC(F)(F)F)cc2)S(=O)(=O)c2ccc(C#N)cc2)sc2ccccc12 [Compound 772]"
test_readout = "inhibition at 0.2 µM"
unit_abbreviation = "%"
observed = 95

[[record]]
molecule = "COC(=O)c1ccc(S(=O)(=O)N(Cc2ccc(F)c(C(F)(F)F)c2)c2sc3ccccc3c2Br)cc1 [Compound 192]"
test_readout = "inhibition at 0.2 µM"
unit_abbreviation = "%"
observed = 82

[[record]]
molecule = "COc1ccc(S(=O)(=O)N(Cc2ccc(F)c(C(F)(F)F)c2)c2sc3ccccc3c2C)cc1F [Compound 64]"
test_readout = "inhibition at 0.2 µM"
unit_abbreviation = "%"
observed = 96


Data credit: patent US9434711B2
